Target: 5HT2A receptor (Homo sapiens, UniProt P28223)
Sequence (P28223 whole entry): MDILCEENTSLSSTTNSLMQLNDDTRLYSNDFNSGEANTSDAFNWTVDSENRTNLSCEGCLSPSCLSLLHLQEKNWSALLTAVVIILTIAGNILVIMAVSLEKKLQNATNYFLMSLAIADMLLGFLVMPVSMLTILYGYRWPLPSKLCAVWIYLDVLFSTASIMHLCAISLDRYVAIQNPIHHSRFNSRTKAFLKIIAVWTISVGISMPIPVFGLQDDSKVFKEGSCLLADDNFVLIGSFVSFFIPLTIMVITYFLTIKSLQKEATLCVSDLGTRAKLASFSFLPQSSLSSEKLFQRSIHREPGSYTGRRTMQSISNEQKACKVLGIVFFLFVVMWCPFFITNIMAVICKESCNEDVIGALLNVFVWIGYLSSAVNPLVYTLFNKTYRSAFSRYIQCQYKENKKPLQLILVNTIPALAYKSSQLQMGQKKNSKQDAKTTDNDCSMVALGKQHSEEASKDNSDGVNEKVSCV
Assay: cell-based
Design: expressed in transfected cells; host or cells: HEK293T cells, transient co-transfection
Details: HEK-293T, read-out: 5HT2A β-Arr Emax (%), BRET1 beta-arrestin2 recruitment, HEK293T, normalized to 5-HT
Exercise: state measured Emax for each of the compounds provided.
All answers are understood in %, so give the number only.

Query string: Would you kindly share the measured Emax for `Clc1cccc2c(C3=CCCN(C4CC4)C3)n[nH]c12` ?
Result string: 24.9

Query string: I have this compound here, `Clc1cccc2c(C3CNC3)c[nH]c12` , and I need its recorded Emax.
Result string: 42.3

Query string: Suppose we examine the compound Cc1c(F)ccc2c(C34CNCC3C4)c[nH]c12 (centres unmarked) ; what Emax value has been reported?
Result string: 41.5

Query string: If you can, please state the reported Emax value of Fc1ccc2c(C34CNCC3C4)c[nH]c2c1Cl (centres unmarked) .
Result string: 55.6

Query string: Consider the compound shown here: `FC(F)(F)CN1CCC=C(c2n[nH]c3c(Cl)cccc23)C1` What is its recorded Emax?
Result string: 66.5

Query string: Quick one: Emax for `[2H]C([2H])([2H])N1CCC=C(c2n[nH]c3c(Cl)cccc23)C1` ?
Result string: 60.9

Query string: So what does the record say about Emax for `CC#CCN1CCC=C(c2n[nH]c3c(Cl)cccc23)C1` ?
Result string: 24.2

Query string: Fill in the blank: the reported Emax of Clc1cccc2c(C34CNCCC3C4)c[nH]c12 (centres unmarked) is ____.
Result string: 30

Query string: Dear colleague, I am looking for the recorded Emax of the following compound: Cc1cc(F)cc2c(C34CNCC3C4)c[nH]c12 (centres unmarked)
Result string: 44.8

Query string: Data request, read-out Emax, for `Clc1cccc2c(C3=CCCCNC3)n[nH]c12`
Result string: 48.9

Query string: For `CCCN1CCC=C(c2c[nH]c3c(Cl)c(F)ccc23)C1` , what is its reported Emax?
Result string: 30.9

Query string: Which Emax value belongs to Fc1cc(Cl)c2[nH]cc(C34CNCC3C4)c2c1 (centres unmarked) ?
Result string: 60.9

Query string: Give its Emax value. Item: `Fc1ccc2c(C3=CCCNC3)c[nH]c2n1`
Result string: 38.1

Query string: Suppose we examine the compound `CCCc1cccc2c(C3=CCCN(CC)C3)c[nH]c12` ; what Emax value has been reported?
Result string: 44.8

----------
Biological target: 5HT2A receptor (Homo sapiens, UniProt P28223)
Assay: biochemical
Format: binding
Design: expressed in transfected cells; crude membranes
Settings: 5HT2A Ki (nM), secondary radioligand binding, Ki from IC50 by Cheng-Prusoff
quantity.name: Ki (nM)
Response body: numeric value in nM, unit text excluded.

Query string: Report Ki for `CN1CCC=C(c2c[nH]c3cc(C(C)(C)C)ccc23)C1` please.
Result string: 7880

Query string: Record request: Ki value, item `CN1CCC=C(c2c[nH]c3nccc(Cl)c23)C1`
Result string: 465

Query string: // returns reported Ki for input `Cc1ccc2c(C3=CCCNC3)c[nH]c2c1`
Result string: 1200

Query string: Entry `Clc1ccc2c(C3=CCCNC3)n[nH]c2c1` has what Ki?
Result string: 439

Query string: Quick one: Ki for `C1=C(c2n[nH]c3ccccc23)CNCC1` ?
Result string: 113

Query string: Quick one: Ki for `Cc1ccnc2[nH]cc(C3=CCCNC3)c12` ?
Result string: 8510

Query string: Field request: Ki | item: `CC(C)c1ccc2[nH]cc(C3=CCCN(C)C3)c2c1`
Result string: 105

Query string: Data request, read-out Ki, for `Cc1cnc2[nH]cc(C3=CCCN(C)C3)c2c1`
Result string: 717

Query string: What value of Ki has been recorded for this entry: `CC(C)(C)c1ccc2c(C3=CCCNC3)c[nH]c2c1`
Result string: 9910

Query string: # Ki lookup, item `CCc1ccc2[nH]cc(C3=CCCN(C)C3)c2c1`
Result string: 166

Query string: Requested field: Ki. Item: `Fc1cnc2[nH]cc(C3=CCCNC3)c2c1`
Result string: 53.6

Query string: // returns reported Ki for input `CN1CCC=C(c2c[nH]c3cc(-c4ccccc4)ccc23)C1`
Result string: 1330

Query string: Reported Ki, compound CN1CCCC(c2c[nH]c3c(Cl)cccc23)C1 (single isomer, unassigned) : ____
Result string: 1430

Query string: Can you look up the measured Ki of `CC(C)c1cccc2c(C3=CCCN(C)C3)c[nH]c12` for me?
Result string: 510

Query string: Fill in the blank: the reported Ki of `CCc1[nH]c2ccccc2c1C1=CCCNC1` is ____.
Result string: 810

Query string: Query (compound): `Cc1cccc2[nH]nc(C3=CCCN(C)C3)c12` ; field requested: Ki
Result string: 786

Query string: Looking for the measured Ki of `CN1CCC=C(c2c[nH]c3ncc(Cl)cc23)C1` , can you help?
Result string: 209

Query string: So what's the measured Ki for this one? `COc1cnc2[nH]cc(C3=CCCNC3)c2c1`
Result string: 294

Query string: Could you share which Ki value was measured for `CCc1[nH]c2ccccc2c1C1=CCCN(C)C1` ?
Result string: 221

Query string: Which value of Ki has been reported for `CN1CCC=C(c2c[nH]c3ccc(-c4ccccc4)cc23)C1` in the records?
Result string: 498

Query string: Requested read-out: Ki. Entry: `Cc1ccc2c(C3=CCCN(C)C3)c[nH]c2c1`
Result string: 647

Query string: For the compound `Cc1cccc2c(C3=CCCNC3)n[nH]c12` , what Ki is on record?
Result string: 211

Query string: # get_value(readout='Ki', item= `Cc1cccc2[nH]cc(C3=CCCN(C)C3)c12` )
Result string: 136

Query string: If you can, please state the reported Ki value of `Cc1cccc2c(C3=CCCNC3)c[nH]c12` .
Result string: 1380

Query string: Could you tell me which Ki is on file for `CN1CCC=C(c2n[nH]c3c(C#N)cccc23)C1` ?
Result string: 1380

Query string: Sample `CCc1ccc2[nH]cc(C3=CCCNC3)c2c1` — what was its Ki?
Result string: 941

Query string: What does the data say about its Ki? Entry: `CN1CCC=C(c2n[nH]c3ccc(F)cc23)C1`
Result string: 246

Query string: For the compound shown here, `CN1CCC=C(c2n[nH]c3ccc(C#N)cc23)C1` , give the reported Ki.
Result string: 1390

Query string: So what does the record say about Ki for `CN1CCC=C(c2c[nH]c3nccc(F)c23)C1` ?
Result string: 1360

Query string: For the compound shown here, `CN1CCC=C(c2cn(C)c3ncccc23)C1` , give the reported Ki.
Result string: 423

Query string: Given the compound `COc1cccc2c(C3=CCCNC3)n[nH]c12` , what is its reported Ki?
Result string: 1090

Query string: Reported Ki for `Cc1cccn2c(C3=CCCNC3)cnc12` : what is it?
Result string: 9040

Query string: # query: Ki of entry `CN1CCC=C(c2c[nH]c3nccc(-c4ccccc4)c23)C1`
Result string: 164

Query string: What value of Ki has been reported for the following compound? `C=CCN1CCC=C(c2n[nH]c3c(Cl)cccc23)C1`
Result string: 159

Query string: Name the reported Ki value associated with the compound `Cc1ccc2c(C3=CCCNC3)n[nH]c2c1`
Result string: 2460

Query string: Ki lookup needed for `COc1cccc2c(C3=CCCN(Cc4ccccc4)C3)c[nH]c12` , thanks.
Result string: 448

Query string: So what does the record say about Ki for `CC(C)c1ccc2c(C3=CCCNC3)c[nH]c2c1` ?
Result string: 1260

Query string: Could you tell me which Ki is on file for `C1=C(c2c[nH]c3ccc(-c4ccccc4)cc23)CNCC1` ?
Result string: 1480

Query string: What value of measured Ki is listed for `Cc1[nH]c2ccccc2c1C1=CCCN(C)C1` ?
Result string: 823

Query string: Returns the measured Ki for the input compound. Input: `C1=C(c2c[nH]c3cc(-c4ccccc4)ccc23)CNCC1`
Result string: 6760

----------
Target: UniProt:P28223
Assay: cell-based
Set-up: expressed in transfected cells; host or cells: HEK293T cells, transient co-transfection
Conditions: 5HT2A β-Arr EC50 (nM), BRET1 beta-arrestin2 recruitment, HEK293T
quantity.name: EC50 (nM)
Output spec: scalar in nM, unitless text.

Query string: Could you share which EC50 value was measured for Clc1cccc2c(C34CNCC3C4)n[nH]c12 (single isomer, unassigned) [Example 274] ?
Result string: 733

Query string: // EC50 lookup, key: `CCCN1CCC=C(c2c[nH]c3c(C)c(F)ccc23)C1`
Result string: 303

Query string: Fill in: EC50 of `FC(F)(F)CN1CCC=C(c2n[nH]c3c(Cl)cccc23)C1` is ___
Result string: 1050

Query string: Look up EC50 for this compound: Fc1cc(Cl)c2[nH]cc(C34CNCC3C4)c2c1 (stereo not shown)
Result string: 380

Query string: Item `CCCN1CCC=C(c2c[nH]c3c(CC)cccc23)C1` has what recorded EC50?
Result string: 120

Query string: Quick one: EC50 for `CCCc1cccc2c(C3=CCCN(CC)C3)c[nH]c12` ?
Result string: 1300

Query string: Report EC50 for Clc1cccc2c(C34CNCC3C4)c[nH]c12 (single isomer, unassigned) [Example 277] please.
Result string: 212

Query string: What does the record list as EC50 for Cc1cccc2c(C34CCNCC3C4)n[nH]c12 (stereo not shown) ?
Result string: 2000

Query string: Quick check: EC50 of Cc1c(F)ccc2c(C34CNCC3C4)c[nH]c12 (stereo not shown) ?
Result string: 797

Query string: Requested field: EC50. Item: `CN1CC(c2c[nH]c3c(Cl)cccc23)C1`
Result string: 1000

Query string: What measured EC50 goes with `FCCCN1CCC=C(c2n[nH]c3c(Cl)cccc23)C1` ?
Result string: 157

Query string: Query (compound): Clc1cccc2c(C34CNCCC3C4)c[nH]c12 (stereo not shown) ; field requested: EC50
Result string: 1380

Query string: State the recorded EC50 for this entry: `Cc1cccc2c(N3CCNCC3)n[nH]c12`
Result string: 917

Query string: Find the recorded EC50 belonging to `[2H]C([2H])([2H])N1CCC=C(c2n[nH]c3c(Cl)cccc23)C1` and report it.
Result string: 29.9

Query string: I am curious: what EC50 value has been reported for Fc1ccc2c(C34CNCC3C4)c[nH]c2c1 (stereo not shown) ?
Result string: 369

Query string: Endpoint output: EC50 of Fc1cc(Cl)c2[nH]nc(C34CNCC3C4)c2c1 (stereo not shown) . Value?
Result string: 542

Query string: Which EC50 value belongs to Clc1cccc2c(C3=CC4CCC(C3)N4)n[nH]c12 (stereo not shown) ?
Result string: 1320

Query string: Given the compound `Clc1cccc2c(C3=CCCN(C4CC4)C3)n[nH]c12` , what is its reported EC50?
Result string: 120

Query string: Consider the compound `Clc1cccc2c(-c3cncnc3)n[nH]c12` and give its measured EC50.
Result string: 729

Where these numbers come from: patent US20260265246A1
